Tested on: Cell membrane
Protocol Summary: Induction of cytoplasmic membrane depolarization in methicilin-resistant Staphylococcus aureus 21455 at 16 times MIC by DiSC3(5) dye-based fluorescence assay
Calls of active or inactive are those of the source. The calls are words filed in the database; no cut-off is given here.
Outcome codes: active, inactive

Item Smiles	System Tested	Group
CC[C@H](C)[C@H](NC(=O)[C@@H](Cc1ccccc1)NC)C(=O)N[C@@H](CCCNC(=N)N)C(=O)N[C@H](CCCNC(=N)N)C(=O)N[C@@H](C(=O)N[C@H](C(=O)N[C@@H](CO)C(=O)N[C@H]1C(=O)N[C@@H](C)C(=O)N[C@@H](C2CCCCC2)C(=O)N[C@@H]([C@@H](C)CC)C(=O)O[C@H]1C)[C@@H](C)CC)[C@@H](C)CC	Cell membrane	active
CC[C@H](C)[C@H](NC(=O)[C@@H](Cc1ccccc1)NC)C(=O)N[C@@H](CCCNC(=N)N)C(=O)N[C@H](CCCNC(=N)N)C(=O)N[C@@H](C(=O)N[C@H](C(=O)N[C@@H](CO)C(=O)N[C@H]1C(=O)N[C@@H](CCCNC(=N)N)C(=O)N[C@@H](C2CCCCC2)C(=O)N[C@@H]([C@@H](C)CC)C(=O)O[C@H]1C)[C@@H](C)CC)[C@@H](C)CC	Cell membrane	active
CC[C@H](C)[C@H](NC(=O)[C@@H](Cc1ccccc1)NC)C(=O)N[C@@H](CO)C(=O)N[C@H](CCC(N)=O)C(=O)N[C@@H](C(=O)N[C@H](C(=O)N[C@@H](CO)C(=O)N[C@H]1C(=O)N[C@@H](C)C(=O)N[C@@H](C2CCCCC2)C(=O)N[C@@H]([C@@H](C)CC)C(=O)O[C@H]1C)[C@@H](C)CC)[C@@H](C)CC	Cell membrane	inactive
CC[C@H](C)[C@H](NC(=O)[C@@H](Cc1ccccc1)NC)C(=O)N[C@@H](CO)C(=O)N[C@H](CCCNC(=N)N)C(=O)N[C@@H](C(=O)N[C@H](C(=O)N[C@@H](CO)C(=O)N[C@H]1C(=O)N[C@@H](C)C(=O)N[C@@H](C2CCCCC2)C(=O)N[C@@H]([C@@H](C)CC)C(=O)O[C@H]1C)[C@@H](C)CC)[C@@H](C)CC	Cell membrane	inactive

###

Test system: Cell membrane
Protocol Summary: Induction of cytoplasmic membrane depolarization in methicilin-resistant Staphylococcus aureus 21455 at 8 times MIC by DiSC3(5) dye-based fluorescence assay
The source made the active and inactive calls. The rule behind the calls is not given here.
Outcomes: YES (active), NO (inactive)

Item Smiles	System Tested	Group
CC[C@H](C)[C@H](NC(=O)[C@@H](Cc1ccccc1)NC)C(=O)N[C@@H](CCCNC(=N)N)C(=O)N[C@H](CCCNC(=N)N)C(=O)N[C@@H](C(=O)N[C@H](C(=O)N[C@@H](CO)C(=O)N[C@H]1C(=O)N[C@@H](CCCNC(=N)N)C(=O)N[C@@H](C2CCCCC2)C(=O)N[C@@H]([C@@H](C)CC)C(=O)O[C@H]1C)[C@@H](C)CC)[C@@H](C)CC	Cell membrane	YES
CC[C@H](C)[C@H](NC(=O)[C@@H](Cc1ccccc1)NC)C(=O)N[C@@H](CO)C(=O)N[C@H](CCCNC(=N)N)C(=O)N[C@@H](C(=O)N[C@H](C(=O)N[C@@H](CO)C(=O)N[C@H]1C(=O)N[C@@H](C)C(=O)N[C@@H](C2CCCCC2)C(=O)N[C@@H]([C@@H](C)CC)C(=O)O[C@H]1C)[C@@H](C)CC)[C@@H](C)CC	Cell membrane	NO
CC[C@H](C)[C@H](NC(=O)[C@@H](Cc1ccccc1)NC)C(=O)N[C@@H](CO)C(=O)N[C@H](CCC(N)=O)C(=O)N[C@@H](C(=O)N[C@H](C(=O)N[C@@H](CO)C(=O)N[C@H]1C(=O)N[C@@H](C)C(=O)N[C@@H](C2CCCCC2)C(=O)N[C@@H]([C@@H](C)CC)C(=O)O[C@H]1C)[C@@H](C)CC)[C@@H](C)CC	Cell membrane	NO
